assayed.system: Histamine H3 receptor (Rattus norvegicus) (UniProt Q9QYN8)
Sequence (Q9QYN8 whole entry, looked up): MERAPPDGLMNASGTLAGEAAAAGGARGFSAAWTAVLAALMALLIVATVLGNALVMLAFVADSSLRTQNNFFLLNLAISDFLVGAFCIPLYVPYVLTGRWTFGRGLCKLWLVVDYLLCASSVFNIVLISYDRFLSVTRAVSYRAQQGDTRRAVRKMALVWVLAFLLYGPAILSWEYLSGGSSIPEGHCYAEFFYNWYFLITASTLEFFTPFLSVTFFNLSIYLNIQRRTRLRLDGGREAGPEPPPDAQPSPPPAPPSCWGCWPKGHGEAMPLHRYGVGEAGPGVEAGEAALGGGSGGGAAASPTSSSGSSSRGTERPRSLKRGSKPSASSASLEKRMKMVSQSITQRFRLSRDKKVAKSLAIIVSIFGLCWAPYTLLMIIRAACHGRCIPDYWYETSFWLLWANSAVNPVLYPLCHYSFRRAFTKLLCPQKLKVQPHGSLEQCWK
assay.procedure: Inhibition of the specific binding of [3H](R)-alpha-methylhistamine ([3H]RMHA) to Histamine H3 receptor in rat brain membranes at 10e-8 M
Measured inhibition values are reported for all entries that follow.

>  <compound>
O=C(O)C1C[C@@H]1c1c[nH]cn1 (single isomer, unassigned)

>  <inhibition / %>
11.6

$$$$
>  <compound>
OC/C=C\c1ccccc1

>  <inhibition / %>
4.3

$$$$
>  <compound>
C/C=C/CO

>  <inhibition / %>
10

$$$$
>  <compound>
C/C=C\CO

>  <inhibition / %>
3.7

$$$$
>  <compound>
OC/C=C/c1ccccc1

>  <inhibition / %>
33.5

$$$$
